Can you tell me Activity for the items I'm about to list?
system: Pseudoperonospora cubensis; experiment: Fungicidal activity against Pseudoperonospora cubensis at 25 mg/L relative to untreated control; format: functional
Numbers only, in %.

Some entries whose results are on file:
COMPOUND	TARGET_UNDER_TEST	OBSERVED_RESULT
CCc1c(C)c2ccc(OCc3ccccc3/C(=C\OC)C(=O)OC)cc2oc1=O	Pseudoperonospora cubensis	20
CO/C=C(/C(=O)OC)c1ccccc1COc1ccc2c(C(C)C)cc(=O)oc2c1	Pseudoperonospora cubensis	95

Look at each compound and report its Activity.
1. CO/C=C(/C(=O)OC)c1ccccc1COc1ccc2c(C)c(C)c(=O)oc2c1
2. CO/C=C(/C(=O)OC)c1ccccc1COc1ccc2ccc(=O)oc2c1
3. CO/C=C(/C(=O)OC)c1ccccc1COc1cccc(C(F)(F)F)n1 [PICOXYSTROBIN]

OUT:
1. 100
2. 50
3. 95

Reference for the values: ChEMBL document CHEMBL3045982
